METHOD SUMMARY: Percutaneous toxicity
CONDITION DETAILS: mouse, in vivo, topical or ocular; dd-strain female mice, 10% solution in acetone on shaved backs
In this section we review reported LD50 values for a set of molecules.
REPORTED METRIC: LD50

- MOLECULE: "Cc1cc([N+](=O)[O-])ccc1NC(=O)c1cc(C(C)(C)C)ccc1O"
  RESULT: "> 5000 mg/kg"
- MOLECULE: "Cc1cccc(NC(=O)c2cc(C(C)(C)C)ccc2O)c1C"
  RESULT: "> 5000 mg/kg"
- MOLECULE: "O=C(Nc1ccc(Br)cc1)c1cc(Br)cc(Br)c1O [Tribromsalan, 3,4',5-Tribromosalicylanilide, reference compound]"
  RESULT: "> 2000 mg/kg"
